- Test system: RXF 393 renal
- method-notes: NCI-60 one-dose screen, 48 h
- experimental-setup: 10 µM unless noted
This is part of a sample that, as a whole, favours compounds with a hit. Of some 83,000 tested, about 20% had one in any assay. Active and inactive are the calls of the source. Rule for the calls: active = growth percent below 10; inactive = the rest. Where a SMILES comes first, the peptide text is derived from it. The star is where a group is joined. Trt = c1ccc(C(c2ccccc2)(c2ccccc2)*)cc1; Cbz = O=C(OCc1ccccc1)*
Outcomes: y for active, n for inactive

[
  {
    "compound": "N#CC1C(=O)SC2c3ccccc3C(=O)c3ccccc3C12 (centres undefined)",
    "category": "n"
  },
  {
    "compound": "N#CSCc1ccc(CSC#N)c(Cl)c1",
    "category": "n"
  },
  {
    "compound": "CCC(c1cccc(O)c1)C(CC)c1cccc(O)c1 (centres undefined)",
    "category": "n"
  },
  {
    "compound": "Cn1c2c(c3ccccc31)CCN1C[C@@H]3CCCC[C@H]3C[C@@H]21",
    "category": "y"
  },
  {
    "compound": "O=C(/C=C/c1cccc(Cl)c1)c1ccccc1",
    "category": "n"
  },
  {
    "compound": "CC1OC2CC(=O)OC2C2=C1C(=O)c1c(O)cccc1C2=O (centres undefined)",
    "category": "y"
  },
  {
    "compound": "CCCCCCC(C)c1ccccc1O (centres undefined) (tested in a mixture with another compound)",
    "category": "n"
  },
  {
    "compound": "Nc1nc(N)c2c(ccc3c2ccn3Cc2cccc([N+](=O)[O-])c2)n1",
    "category": "y"
  },
  {
    "compound": "CCOC(=O)/C(=C\\c1ccc(-c2ccccc2)cc1)C(C)=O",
    "category": "n"
  },
  {
    "compound": "CC1SC(=S)N(c2ccc(Cl)cc2)C1=O (centres undefined)",
    "category": "n"
  },
  {
    "compound": "COc1ccc(N=N/N=c2\\sc3cc(OC)ccc3n2C)cc1",
    "category": "n"
  },
  {
    "compound": "O=C1c2ccccc2C(=O)c2sc(Nc3cccc(Cl)c3)nc21",
    "category": "y"
  },
  {
    "compound": "Cc1ccc2c(ccc3c[n+]4c5ccccc5ccc4n32)c1",
    "category": "n"
  },
  {
    "compound": "O=C1C2=C(Nc3cc([N+](=O)[O-])ccc3N2)OC1c1c2ccccc2cc2ccccc12 (centres undefined)",
    "category": "n"
  },
  {
    "compound": "Cc1cc(C(C)(CC(C)C)c2ccc(O)c(C)c2)ccc1O",
    "category": "n"
  },
  {
    "compound": "N#CSCC(=O)c1ccc(Cl)cc1",
    "category": "n"
  },
  {
    "compound": "Cc1ccc(C(=Nc2ccccc2)N=P(c2ccccc2)(c2ccccc2)c2ccccc2)cc1",
    "category": "y"
  },
  {
    "compound": "N[C@H](C(=O)O)[C@@H]1CC(Cl)=NO1",
    "category": "n"
  },
  {
    "compound": "N#Cc1ccc([N+](=O)[O-])o1",
    "category": "n"
  },
  {
    "compound": "COc1cc(NS(C)(=O)=O)ccc1Nc1c2ccccc2nc2ccccc12",
    "category": "y"
  },
  {
    "compound": "CC1(C)CC([P+](c2ccccc2)(c2ccccc2)c2ccccc2)=NN1",
    "category": "n"
  },
  {
    "compound": "COC(=O)[C@@]12OC[C@]34[C@H]([C@@H](O)[C@@H]1O)[C@@]1(C)[C@H](O)C(=O)C=C(C)[C@@H]1C[C@H]3OC(=O)C(OC(C)=O)[C@@H]24 (some centres undefined)",
    "category": "y"
  },
  {
    "compound": "CC(=O)C(=Cc1ccc(C=C(C(C)=O)C(C)=O)cc1)C(C)=O",
    "category": "y"
  },
  {
    "compound": "Cc1ccc(N=C=C(c2ccccc2)c2ccccc2)cc1",
    "category": "n"
  },
  {
    "compound": "CN(Cc1cnc2nc(N)nc(N)c2n1)c1ccc(C(=O)NC(CCC(=O)O)C(=O)O)cc1 (centres undefined)",
    "category": "n"
  },
  {
    "compound": "CCC1OC(OC)C=CC1=O (centres undefined)",
    "category": "n"
  },
  {
    "compound": "Cc1ccc2nc(-[n+]3cc4ccccc4cc3C)ccc2c1",
    "category": "n"
  },
  {
    "compound": "O=C(Nc1ccccc1)c1cc(Cl)ccc1O",
    "category": "n"
  },
  {
    "compound": "COC(=O)c1nc(=S)[nH]c(C(=O)OC)c1C(=O)c1ccc2ccccc2c1",
    "category": "n"
  },
  {
    "compound": "CCOC(=O)c1c(C)[nH]c(CO)c1C",
    "category": "n"
  },
  {
    "compound": "S=C(N/N=C/c1ccccn1)Nc1ccccn1",
    "category": "y"
  },
  {
    "compound": "CCC(CCCN(CC)CCc1ccccc1)OC(=O)c1cc(OC)c(OC)c(OC)c1 (centres undefined)",
    "category": "n"
  },
  {
    "compound": "Cc1cc(N)c2ccccc2[n+]1CCCCCCCCCC[n+]1c(C)cc(N)c2ccccc21",
    "category": "y"
  },
  {
    "compound": "c1ccc2c(c1)Nc1cc3ccccc3cc1N2",
    "category": "n"
  },
  {
    "compound": "COC(=O)C(CSC(c1ccccc1)(c1ccccc1)c1ccccc1)NC(=O)C(CC(N)=O)NC(=O)OCc1ccccc1 (stereo not drawn) (Cbz-Asn-Cys(Trt)-OMe; configuration not given here)",
    "category": "n"
  },
  {
    "compound": "Cc1c2ccccc2c(C)c2c1ccc1ccccc12",
    "category": "n"
  },
  {
    "compound": "O=[N+]([O-])c1ccc2c(N=Nc3ccc4ccccc4c3O)c(O)cc(S(=O)(=O)O)c2c1",
    "category": "n"
  },
  {
    "compound": "CNc1ccc(N)cc1",
    "category": "n"
  },
  {
    "compound": "N#CSCc1c(Cl)cccc1Cl",
    "category": "n"
  }
]

Recorded values, source PubChem BioAssay (NCI).
